Test: Half life in Sprague-Dawley rat at 1 mg/kg, iv by LC-MS analysis
Format: ADME, organism-based
Conditions: in vivo
recorded.metric: half-life (h)
Supply the numeric figure in h, leaving out any unit text.

Input: Request the reported half-life associated with O=C(OC(C(F)(F)F)C(F)(F)F)N1CCN(Cc2ccc(C(F)(F)F)cc2N2CCCC2)CC1
Output: 3.6

====

Assay: Volume of distribution at steady state in Sprague-Dawley rat at 1 mg/kg, iv or 5 mg/kg, po by LC-MS analysis
Format: ADME, organism-based
Conditions: in vivo, read-out: Vdss
recorded.metric: Vd (L/kg)
State the answer as a number, implicitly in L/kg.

Input: Report Vd for O=C(OC(C(F)(F)F)C(F)(F)F)N1CCN(Cc2ccc(C(F)(F)F)cc2N2CCCC2)CC1 please.
Output: 3.2

Where these numbers come from: ChEMBL document CHEMBL4308843
